Every entry's value here was drawn from PubChem BioAssay (NCI).

- TEST SUMMARY: NCI Yeast Anticancer Drug Screen. Data for the rad18 strain (AID 177)
- RECORDED CONDITIONS: S. cerevisiae rad18 mutant growth inhibition; at 1.2 µM; stronger effect = higher value
Compounds without any hit were thinned out: in the full panel of roughly 79,000, 15% have a hit.
OBSERVED PROPERTY: growth inhibition (%)

>>> measured_value("COc1ccc(N=N/C(=N\\NC(=O)c2cc(Br)ccc2O)c2ccc(N(CCC#N)CCC#N)cc2OC)cc1")
14
>>> measured_value("Cc1ccc(Nc2n[nH]c(=S)s2)cc1")
-17
>>> measured_value("Cc1ccc(I)cc1N=C=S")
10
>>> measured_value("Cc1ccc(S(=O)(=O)Nc2ccc3c(c2)C(O)c2ccccc2-3)cc1 (centres undefined)")
-3

###

- TEST SUMMARY: NCI Yeast Anticancer Drug Screen. Data for the rad50EPP+ strain (AID 151);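 also: 0% = growth of vehicle-treated control cultures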
- RECORDED CONDITIONS: S. cerevisiae rad50 mutant strain, at 33.0 µM, stronger effect = higher value
This is part of a sample that, as a whole, favours compounds with a hit. Of some 79,000 tested, about 15% had one in any assay.
Assign class by growth inhibition: not lower than 40% means met; lower than 40% means not met.

>>> label_value("Cc1nc2c(ncn2CCO)c(=O)[nH]1")
"not met"
>>> label_value("CCOC(=O)C1=C(C)NC(C)=C(C(=O)OCC)C1c1ccc(C)cc1")
"not met"
>>> label_value("CC1=CCC(C(C)(C)c2ccc(O)cc2)CC1 (stereo not drawn)")
"not met"
>>> label_value("CCN(CC)N=Nc1c(C(N)=O)n[nH]c1C")
"not met"
>>> label_value("Nc1cc(S(N)(=O)=O)ccc1SSc1ccc(S(N)(=O)=O)cc1N")
"met"
>>> label_value("c1ccc2c(c1)Cn1c-2nc2ccccc21")
"met"
>>> label_value("O=C(O)c1cccc2cccc(-c3c4ccc(=O)cc-4oc4cc(O)ccc34)c12")
"met"
>>> label_value("O=C(O)c1[nH]c(=O)c2ccccc2c1Nc1ccccc1")
"not met"
>>> label_value("CSc1s[s+]c(SC)c1-c1ccccc1")
"met"
>>> label_value("O=C1NC(c2c(Cl)cccc2Cl)Nc2ccccc21 (stereo not drawn)")
"not met"
>>> label_value("CC1=CCCC2C1(C)CCC(C)C2(C)Cc1cc(O)ccc1O (stereo not drawn)")
"met"
>>> label_value("N#Cc1sc2c(c1OC(=O)c1ccco1)c(=O)n(-c1ccccc1)c(=S)n2-c1ccccc1")
"not met"

###

- TEST SUMMARY: NCI Yeast Anticancer Drug Screen. Data for the wt2 strain (AID 169);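 also: 0% = growth of vehicle-treated yeast cultures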
- RECORDED CONDITIONS: S. cerevisiae wt2 strain growth inhibition; at 11.0 µM; stronger effect = higher value
The panel holds about 79,000 compounds, 15% with a hit somewhere; the sample as a whole holds those more often.
OBSERVED PROPERTY: growth inhibition (%)

>>> measured_value("CN(NC(=O)/C(=C/c1ccc(O)cc1)NC(=O)c1ccccc1)c1ccnc2cc(Cl)ccc12")
11
>>> measured_value("[Pt].c1ccc(P(CCP(c2ccccc2)c2ccccc2)CCP(c2ccccc2)c2ccccc2)cc1")
2
>>> measured_value("C=C1N(C)c2ccc(Cl)cc2C1(C)C")
-28
>>> measured_value("Cc1cccc(/C=N/NC(=S)N(C)CCc2ccccn2)n1")
97
>>> measured_value("NCc1c(O)ccc2ccccc12")
70
>>> measured_value("CC(=O)C1(O)Cc2c(O)c3c(c(O)c2C(OC2CC(N)C(O)C(C)O2)C1)C(=O)c1ccccc1C3=O (configuration not stated)")
93
>>> measured_value("CCC(=O)N(c1ccccc1)C(C)CN1CCC(O)(c2cccc(C(F)(F)F)c2)CC1 (configuration not stated)")
16
>>> measured_value("CC[C@@]1(OC(=O)CCC(=O)O)C(=O)OCc2c1cc1n(c2=O)Cc2cc3ccccc3nc2-1")
-7
>>> measured_value("C=Cc1cnc([N+](=O)[O-])n1C")
-34
>>> measured_value("COc1ccc(N=N/C(=N\\NC(=O)c2cc(Br)ccc2O)c2ccc(N(CCC#N)CCC#N)cc2OC)cc1")
-15
>>> measured_value("O=C1c2ccccc2CCC1(Br)Br")
62
>>> measured_value("COc1cc([C@@H]2c3cc4c(cc3[C@@H](OC3OC5COC(C)OC5C(O)C3O)[C@H]3COC(=O)[C@H]23)OCO4)cc(OC)c1O (some centres not stated)")
-4
